test system: P. falciparum NF54-pfs16-GFP early (I-III) stage gametocytes; assay: relative % inhibition of viable gametocyte number; higher = more gametocytocidal; conditions: 0.5 µM; stage: early (I-III) gametocyte; incubation 72 h
Decision: relative % inhibition >= 20% yields MET, all other cases yield NOT MET.

- COc1ccc(-c2nonc2NC(=O)c2cccc(Cl)c2)cc1OC: MET
- CN1c2ccccc2N(C)C1c1ccc2c(c1)OCO2: NOT MET
- CCOc1ccc(-n2cc(-c3ccccc3)c3c(SCc4cc(C)ccc4C)ncnc32)cc1: NOT MET
- O=C(Nc1cccc(C(F)(F)F)c1)c1cc(Cl)ccc1O: NOT MET
- CSC1=NC(=Nc2c(C)cccc2C)C2(CCC(C(C)(C)C)CC2)N1c1ccc(Cl)cc1 (stereo unspecified): MET
- COc1cc(C(=O)Nc2ccc(-c3nc4ccccc4[nH]3)cc2)cc(OC)c1OC: MET
- Cc1ccc2c(C)nc(Nc3nc(C)cc(-c4ccccc4)n3)nc2c1: MET
- O=C(Nc1ccc(CN2CCOCC2)cc1)c1ccc(-c2cc(Cl)ccc2Cl)o1: NOT MET
- CCOc1ccccc1CN1CCc2nc3cc(C(C)(C)C)nn3c(O)c2C1: NOT MET
- CCOc1cccc(C(=O)Nc2ccc(-c3nc4ccccc4[nH]3)cc2)c1: MET
- CCOC(=O)c1cnc2ccc(OC)cc2c1NCc1ccccc1: MET

---

system: P. falciparum NF54-pfs16-GFP early (I-III) stage gametocytes; test: relative % inhibition of viable gametocyte number; higher = more gametocytocidal; conditions: 0.5 µM; stage: early (I-III) gametocyte; incubation 72 h
Measured relative % inhibition of individual entries
Property name: relative % inhibition (%)

* CCN(Cc1ccccc1)C1CCN(Cc2cc(Br)ccc2O)CC1 | 27.8
* CCOC(=O)C1CCN(C(=O)CN2C(=O)c3ccccc3C2c2c[nH]c3ccccc23)CC1 (stereo unspecified) | 7.45
* c1ccc(C2=Nc3ccccc3N=C(c3ccccc3)c3ccccc32)cc1 | 35.8
* COc1ccc(Nc2cc(C)nc(NCc3ccccc3)n2)cc1 | -3.8
* Clc1ccc2[nH]c3c(NCCCN4CCOCC4)ncnc3c2c1 | 61.4
* Cc1ccc(NC(=O)Nc2cccc(Cl)c2)cc1F | 11
* CCOc1ccc(C2N(C)c3ccccc3N2C)cc1 | 5
* CCN(CC)c1cc(C)c2cc(NC(=O)c3cccc(OC)c3)ccc2n1 | 15.1
* CCOc1cc2c(cc1OCC)C(c1cc(OC)c(O)cc1Cl)NCC2 (stereo unspecified) | 22.5
* Cc1ccc(-c2cc3nc4c(c(O)n3n2)CCCC4)cc1 | 5.35
* N=c1n(CCN2CCCCC2)c2ccccc2n1CC(=O)c1ccc(Cl)c(Cl)c1 | -10.5

---

system: P. falciparum NF54-pfs16-GFP late (IV-V) stage gametocytes; experiment: relative % inhibition of viable gametocyte number; higher = more gametocytocidal; conditions: 0.5 µM; stage: late (IV-V) gametocyte; incubation 72 h
Property name: relative % inhibition

• CCOc1cc(Cl)c(C(C)NC(=O)c2cccc(OC)c2)cc1OCC (stereo not given) = -6.93%
• Cn1c(=O)n(C)c2cc(CNCCNc3ccnc4cc(Cl)ccc34)ccc21 = 37.6%
• COc1ccccc1CNC(=O)CCn1c(=O)[nH]c2ccsc2c1=O = -0.5%
• CCCc1c(C)nc2ccc(Br)cc2c1O = 25.1%
• Cc1ccc(N2C3c4ccccc4N(S(=O)(=O)c4ccc(C)cc4)C2c2ccccc2N3S(=O)(=O)c2ccc(C)cc2)cc1 = 95%

---

system: P. falciparum NF54-pfs16-GFP early (I-III) stage gametocytes; test: relative % inhibition of viable gametocyte number; higher = more gametocytocidal; settings: 0.5 µM; stage: early (I-III) gametocyte; incubation 72 h
Property name: relative % inhibition

- Cc1cc(N2CCCC2)nc(Nc2ccc(NC(=O)CCc3ccccc3)cc2)n1: 53.7%
- CCOC(=O)c1cnc2c(C)cc(C)cc2c1Nc1ccc(OC)c(OC)c1: 2.37%
- O=C(Nc1ccc(Cl)cc1)N1CCN(c2ccc3nncn3n2)CC1: 18%
- O=C1C2=C(Nc3ccccc3SC2c2ccccc2)c2ccccc21 (stereo unspecified): -7.59%
- COc1cccc(C=Cc2nc(=O)c3ccccc3o2)c1OC: -6.76%
- COc1ccc(C(=O)Nc2ccc3nc(N4CCCCC4)cc(C)c3c2)cc1OC: -8%

---

test system: P. falciparum NF54-pfs16-GFP early (I-III) stage gametocytes; test: relative % inhibition of viable gametocyte number; higher = more gametocytocidal; details: 5 µM; stage: early (I-III) gametocyte; incubation 72 h
Decision: relative % inhibition >= 40% yields criterion met, all other cases yield criterion not met.

• CCOC(=O)C1=C(C)N=c2sc(=Cc3ccccc3O)c(=O)n2C1c1ccc(OC)c2ccccc12 (stereo unspecified) = criterion met
• CCOc1cccc(C(=O)Nc2ccc(-c3nc4ccccc4[nH]3)cc2)c1 = criterion not met
• Clc1ccc2[nH]c3c(NCCCN4CCOCC4)ncnc3c2c1 = criterion met
• CCOc1cc2c(cc1OCC)C(c1cc(OC)c(O)cc1Cl)NCC2 (stereo unspecified) = criterion met
• Cc1ccc(CN2CCC(C(=O)Nc3ccc(-c4cc5ccccc5[nH]4)cc3)CC2)o1 = criterion met
• COc1ccc(C(=O)NC(c2ccc(Cl)cc2Cl)c2cc(Cl)c3cccnc3c2O)cc1 (stereo unspecified) = criterion met
• COc1ccc(-c2nc(N3CCN(C(=O)C4CCCCC4)CC3)c3c4c(sc3n2)CCCC4)cc1 = criterion met
• COc1ccccc1N1C(=N)SC(=Cc2ccc(OCc3ccccc3F)cc2)C1=O = criterion not met
• Cc1ccc(N2C3c4ccccc4N(S(=O)(=O)c4ccc(C)cc4)C2c2ccccc2N3S(=O)(=O)c2ccc(C)cc2)cc1 = criterion met
• O=C(NC1CCN(Cc2ccccc2)CC1)c1cc2nc(-c3ccc(Cl)s3)cc(C(F)(F)F)n2n1 = criterion not met
• Nc1ccc(-c2nc3cc(Cc4ccc5[nH]c(-c6ccc(N)cc6)nc5c4)ccc3[nH]2)cc1 = criterion met
• COc1cc(-c2nc(-c3ccc(Sc4ccccc4)cc3)c(-c3ccccc3)[nH]2)cc(OC)c1O = criterion met
• CCOc1c(Cl)cc(CNCC(O)c2ccccc2)cc1OC (stereo unspecified) = criterion not met
• Brc1ccc(Nc2nc3ccccc3nc2Nc2ccc(Br)cc2)cc1 = criterion met
• Cc1ccc(-c2nc3ccccc3o2)cc1NCc1cc(Cc2ccccc2)ccc1O = criterion met
• CCc1ccc(CNCC(O)c2ccccc2)cc1 (stereo unspecified) = criterion met
• CCC(C)NCC(O)(c1ccc(Cl)cc1)c1ccc(Cl)cc1 (stereo unspecified) = criterion met
• O=C(NCC1Cc2cccc(-c3ccncc3)c2O1)c1csc2c1CCCC2 (stereo unspecified) = criterion not met
• CCCCCCn1c(=N)n(CC(O)COc2cccc(C)c2)c2ccccc21 (stereo unspecified) = criterion met
• C=CCc1c(C)nc2ccccc2c1O = criterion not met
• CSC1=NC(=Nc2c(C)cccc2C)C2(CCC(C(C)(C)C)CC2)N1c1ccc(Cl)cc1 (stereo unspecified) = criterion not met

---

Measured relative % inhibition of individual entries
test system: P. falciparum NF54-pfs16-GFP early (I-III) stage gametocytes; experiment: relative % inhibition of viable gametocyte number; higher = more gametocytocidal; conditions: 5 µM; stage: early (I-III) gametocyte; incubation 72 h
Property name: relative % inhibition (%)

• CCOc1c(Br)cc(C2C(C(=O)OC)=CN(C)C=C2C(=O)OC)cc1OC = 88.4
• CN(C)c1ccc(N2C(N)=NC(N)=NC2(C)C)cc1 = -3.16
• O=c1nc(C=Cc2ccc(Br)cc2)oc2ccccc12 = -18.8
• CCn1c2c(c(=N)c3c1CCC3)CCCC2 = 25.3
• COc1ccc(C2NCCc3c2[nH]c2ccccc32)cc1CN1CCN(c2ccc(F)cc2)CC1 (configuration not stated) = 90
• COc1ccc(C2c3ccc4ccccc4c3Oc3ncn(CCCN(C)C)c(=N)c32)cc1 (configuration not stated) = -22.6
• O=C(CSc1nccn2nc(-c3ccccc3)cc12)Nc1cc(C(F)(F)F)ccc1Cl = -9.64
• CCC(=O)Nc1nnc(Cc2ccc(OC)c(OC)c2)s1 = 4.14
• Cn1c(=O)n(C)c2cc(CNCCNc3ccnc4cc(Cl)ccc34)ccc21 = 29.6
• CCOc1ccc(C2N(C)c3ccccc3N2C)cc1 = 15.9
• COc1ccc(C=C2SC(=N)N(c3ccccc3OC)C2=O)cc1 = 63.6
• CC1CCN(Cc2ccc(NC(=O)c3cc4ccc5cccnc5c4[nH]3)cc2)CC1 = 94
• CCOc1ccc(CN2CCN(CC(O)COc3ccc(OCC(O)CN4CCN(Cc5ccc(OCC)cc5)CC4)cc3)CC2)cc1 (configuration not stated) = 74.7
• O=C(CCl)NCCOc1ccc(Cl)cc1Cl = 9.39
• CCCCc1ccc(NS(=O)(=O)c2cc3c4c(c2)CCN4C(=O)CC3)cc1 = 1.37
• Cc1cc(N(C)C)nc(Nc2ccc(NC(=O)Nc3ccccc3)cc2)n1 = 8.02
• COc1ccc(C=C2SC(Nc3ccccc3)=NC2=O)cc1 = 17.7
• COc1cccc(C(=O)NC(c2ccc(C)cc2)c2cc(Cl)c3cccnc3c2O)c1 (configuration not stated) = 82.5
• CCOc1cccc2sc(N(Cc3cccnc3)C(=O)C3CCCCC3)nc12 = 53.7
• COc1ccc2nc(C)cc(Nc3ccccc3O)c2c1 = 20.9
• Cc1sc(NC(=O)c2ccco2)c(C(c2cccnc2)N2CCC(Cc3ccccc3)CC2)c1C (configuration not stated) = 85.7
• Cc1ccc(S(=O)(=O)c2c(COC(=O)c3cccc(C)c3)c(-c3ccccc3)nn2C)cc1 = 37.5
• O=C(Nc1ccc(-c2nc3ccccc3[nH]2)cc1)c1ccc(Cl)c(Cl)c1 = -3.57
• Cc1cccc(N2C(=O)C3C(C2=O)C2(c4ccccc4)C(=O)C3(c3ccccc3)C(c3ccc4c(c3)OCO4)=C2c2ccc3c(c2)OCO3)c1 (configuration not stated) = 66.1
• COc1ccc(-n2ccnc2SCC(=O)Nc2cc(C)ccc2C)c(OC)c1 = -5.2
• COc1ccc(CCn2c(=N)c(C(=O)NCc3cccnc3)cc3c(=O)n4cccc(C)c4nc32)cc1 = 70.9
• COc1ccc(-c2cc3c(nn2)-c2ccccc2C3=O)cc1 = 81.1
• COc1ccc(-c2cc3c(SCC(=O)Nc4cc(C(F)(F)F)ccc4Cl)nccn3n2)cc1 = -14.1
• CC(=O)Nc1nnc(SCc2c(C)cc(C(C)(C)C)cc2C)s1 = 19.8
• Oc1ccccc1CN1CCN(C(c2ccccc2)c2ccccc2)CC1 = 98.5
• Oc1ccccc1CNCC12CC3CC(CC(C3)C1)C2 = 84.2
• COCCN(C(=O)Cc1cccs1)C(C(=O)NCc1ccc(OC)cc1)c1ccc(C(C)C)cc1 (configuration not stated) = 5.52
• COc1ccc(C2c3ccc4ccccc4c3Oc3ncn(CCCn4ccnc4)c(=N)c32)cc1OC (configuration not stated) = -9.76
• COc1ccc(-c2nc(NC(=O)CS(=O)(=O)c3ccc(F)cc3)sc2C)cc1 = 100
• CN(C)c1ccc(C=Cc2nc(=O)c3ccccc3o2)cc1 = -23
• COc1ccc2c(c1)OC(O)(C(F)(F)C(F)(F)F)CC2=O (configuration not stated) = -4.42
• Cc1ccc(F)cc1NC(=O)c1cc(Cl)ccc1Nc1ccccc1 = 73.8
• COc1ccc(C=C2SC(Nc3ccc(F)cc3)=NC2=O)c(OC)c1 = 8.91
• CN(C)CCNc1cc(-c2ccccc2)nc2ccccc12 = -20.1
• COc1cc(C(=O)Nc2ccc(-c3nc4ccccc4[nH]3)cc2)cc(OC)c1OC = 42.1
• O=C(NC1CCN(Cc2ccccc2)CC1)c1cc(C(=O)NC2CCN(Cc3ccccc3)CC2)cc(C(=O)NC2CCN(Cc3ccccc3)CC2)c1 = 82
• O=C(Nc1ccsc1C(=O)NC1CCCCC1)c1ccc(F)cc1 = 19.9
